Cited source: the DeepSol protein solubility set

# METHOD SUMMARY: soluble on expression in E. coli; label from the status in PepcDB or PDB records

RESIDUE CODES	soluble on expression in E. coli
GLGFETMRDGIKVAAKETLLTPRFYTTDFDEMEQLFSKEINPNLDMEELNACLNEFRNDYNKVHFVRNETFKAAADKVTGETRRIFIEFLERSCTAEFSGFLLYKELARRMKASSPEVAEMFLLMSRDEARHAGFLNKALSDFNLALDLGFLTKNRTYTYFKPKFIIYATFLSEKIGYWRYITIYRHLQRNPDNQFYPLFEYFENWCQDENRHGDFLAACLKAKPELLNTFEAKLWSKFFCLSVYITMYLNDHQRTKFYESLGLNTRQFNQHVIIETNRATERLFPVVPDVEDPRFFEILNKMVDVNAKLVELSASSSPLAGLQKLPLLERMASYCLQLLFFKEKDVGSVDIAGSGASRNLAY	not soluble
MEIEVVYQHSDFIIINKSEGISVHKDQEEQGLTELVAKQLNVPKVWLVHRLDKVTSGLLILALNAESAAEFSRLFSEHKIHKTYLALSNQKPKKKQGLIIGDMKKAREGAWKLCQTKDNPAITRFESVSCEPNLRLFILKPQTGKTHQLRVAMKSLGSPILGDGLYGKNTEKIDRTYLHATQLEFDYLNNFISVTCLPSQGQFWIKPTVFEQIQVYLTKPFLSKLEHHHHHH	soluble
MKLKLVDVETNPHEEEVGTCEFCMSVEMVNEPVFVFKKDIGELVRVKAFIWSWGFYDEENIENIVDFAAYVNEQEFDEEQELDYSWLTNLIYEYEYGKDC	not soluble
MTAARSAPSPAGAPRPGLRERKKTRTREAIRAATYGLIRQQGYEATTVEQIAERAEVSPSTVLRYFPTREDIVLTDEYDPVMAAELAARPAGEPWSDSLRHVLRKALGLGAGEEAELIRLRTRLLAEVPAVRARMLENMSDTGRMLARAIADRTGLDPDGLEVRIVSMSLVGGLMEVSRYWAEHDHEESLAELVDRALDALENGLPALRESDRESDREGDRGGHREDRREGPRKD	soluble
MGSDKIHHHHHHMPFAKEKGQPAIYYETIGKGTPIIFIPPPGVGHLTFRYQVPLMNQCKLITFDVRGDCQSERSTEPMTMTQLAYDVKRVLDANCVRKAIVCGYSNGAAIAQEFALTYPERTAGVILIGGYFAVKNFLLEKEYKLGIWAARNELMPLLASGLAKNHFTDKQAANELYAEIMKTDPQMLADQYTTGLHYSSEDRLHQLRVPLLLIYGANDHYLQPYQTRFRELVHDVEIVYIQGVKHQVPSKAPHECNAVLREWMRRKQFIPS	not soluble
LLYIDNIPLVEYNNIIQVEYVVINMLKHGILGLLNYGDMTGYEIMKVFRDSLSFFWTANTSQIYRELNTLKKDGFVTDIVVKQTGKPDKKVFSITESGREELKRWLREYDYGNRNSPLCMKVFFSGELPKEENIERLREIKNEAQQAIERYSSVFETMKIYKGMVARPEDSVYWNMTVEYGIRYMKMLSEWCDCCIKILEDVEK	soluble
AQVEPTVAYPHIPSNGRVAGSDRIRVTHAYVGSCTNGRITDLRDVARILKGRKVAQDVQMIVVPATQAIWKQAAQEGLLEIFVDAGASVSYPSCGACLGMHSGVLGPDDICISSSNRNFVGRMGDPSAQIYLASPATVAASAVEGFIADPRRYDAEGND	not soluble
GYCGPCPNNWICHRNNCYQFFNEEKTWNQSQASCLSQNSSLLKIYSKEEQDFLKLVKSYHWMGLVQIPANGSWQWEDGSSLSYNQLTLVEIPKGSCAVYGSSFKAYTEDCANLNTYICMKRAV	soluble
MKKLLLTLVSSSLLVACSQRTESMEDKSIAPCGDKPNCISTLDEREEFTVKPFILTSSANMKAISHIASQLKGAKLVDINNDYARIECTSSVFRFVDDLELRIYGNTLIVRSESRTGYSDFGVNRKRVEKLRTLLEEKGLISQLEHHHHHH	not soluble
MRAADAPDAPLPEDRRNAPVWFAHDLEAPRCTALFPRLADRRPALVVVGGFLGSGKTTFLNNCIEYHRARERFVAVIQNEVGATGVDARLMGDGAEVLALDEGCVCCSLAGSLAGGIRAITADFTPEVILLETTGLANPLNLLAELDTLRDMVRLDAVVTVVDAANIVPTLRDSDIARDQIRGADIIVCNKCDTVDETGRAALRATLTGLNGRAALHETSFGRIHPSLFMALEGERPPRGLMPAPHGTHATHADEGFAAVRLFFSGTIDEAALAPLLQQCPGAPFRIKGIVRVTDDEAPRLVQCVGARCEVERLDGGFEGTPFLVFIGRNPDETALLEHWAALGATAEPPAPQAEADTQPAQATKSASGGQSSDATRGCHDHHLEHHHHHH	not soluble
MLIRAMQKSDYEAVYKLWCEIKGFGIRSIDDSKENIENFLDRNPNLSVVAVIDEEIVGSILCGHDGRTGGFYHVCVHKDHRKKGIAHEMAKFCLEALKAQKINKIALIAFKNNDLGNEFWKHYGFTLREDANYYDLSLNEYNQTSFNA	not soluble
MIGGGPGGLYFAYLWKKRHPEDQVDLFEQNPADATWGFGVVFSDQALEFLRADDPETVDAIAPHMESWENITLNLQGGSVAIDGVGFSSIGRLELLQFLQQRALDVGVTPRFDTQIHGIDQLNGHDLIVAADGLNSLVRRAYEGDFGTSLSYSSNKFVWYGTSKRFDTLSQTFVKTDRGAFNAHHYRYSPTMSTFLVECDHATWQAYGFAYKDVEQSKGVCEEVFADTLGGHCLVSNKSVWRNFPWVWNEHWSFKNMVLIGDALHSAHFSIGSGTRLAIEDAIALVKALESDAHLNTALLRYQAARKPVVQKLVDAARTSASWYENFAQHMQLDLMDFAYSYITRSGRIDDSRLRAMSPAFMARYEAAKNGGDAASEATALEHHHHHH	soluble
